- METHOD SUMMARY: in vivo
- Parameters: species or system female C3H/HeN mice
- MEASUREMENT CONTEXT: mouse, brain, iv, 40 mg/kg, 40 mg.kg^-1 i.v., 15 min after dose, individual animals IV1-IV4, read-out: Brain product Ic concentration
OBSERVABLE: concentration at 0.25 h (ng/g)
Output spec: scalar in ng/g, unitless text.

Quote concentration at 0.25 h reported for `CO[C@H]1C(=O)[C@]2(C)[C@@H](OC)C[C@H]3OC[C@@]3(OC(C)=O)[C@H]2[C@H](OC(=O)c2ccccc2)[C@]2(O)C[C@H](OC(=O)[C@H](O)[C@@H](NC(=O)OC(C)(C)C)c3ccccc3)C(C)=C1C2(C)C` please.
5810

###

- METHOD SUMMARY: in vivo
- Set-up: species or system female C3H/HeN mice
- MEASUREMENT CONTEXT: mouse, brain, iv, 40 mg/kg, 40 mg.kg^-1 i.v., 0.75h after dose, MEAN, read-out: Brain product Ic concentration
OBSERVABLE: concentration at 0.75 h (ng/g)
Output spec: scalar in ng/g, unitless text.

Quote concentration at 0.75 h reported for CO[C@H]1C(=O)[C@]2(C)[C@@H](OC)C[C@H]3OC[C@@]3(OC(C)=O)[C@H]2[C@H](OC(=O)c2ccccc2)[C@]2(O)C[C@H](OC(=O)[C@H](O)[C@@H](NC(=O)OC(C)(C)C)c3ccccc3)C(C)=C1C2(C)C [product Ia] please.
7640

###

- METHOD SUMMARY: in vivo
- Parameters: species or system female C3H/HeN mice
- MEASUREMENT CONTEXT: mouse, plasma, iv, 40 mg/kg, 40 mg.kg^-1 i.v., 1h after dose, MEAN, read-out: Plasma product Ic concentration
OBSERVABLE: concentration at 1 h (ng/mL)
Output spec: scalar in ng/mL, unitless text.

Quote concentration at 1 h reported for `CO[C@H]1C(=O)[C@]2(C)[C@@H](OC)C[C@H]3OC[C@@]3(OC(C)=O)[C@H]2[C@H](OC(=O)c2ccccc2)[C@]2(O)C[C@H](OC(=O)[C@H](O)[C@@H](NC(=O)OC(C)(C)C)c3ccccc3)C(C)=C1C2(C)C` please.
6550

###

- METHOD SUMMARY: in vivo
- Set-up: species or system female C3H/HeN mice
- MEASUREMENT CONTEXT: mouse, brain, iv, 40 mg/kg, 40 mg.kg^-1 i.v., 2h after dose, individual animals IV1-IV4, read-out: Brain product Ic concentration
OBSERVABLE: concentration at 2 h (ng/g)
Output spec: scalar in ng/g, unitless text.

Quote concentration at 2 h reported for CO[C@H]1C(=O)[C@]2(C)[C@@H](OC)C[C@H]3OC[C@@]3(OC(C)=O)[C@H]2[C@H](OC(=O)c2ccccc2)[C@]2(O)C[C@H](OC(=O)[C@H](O)[C@@H](NC(=O)OC(C)(C)C)c3ccccc3)C(C)=C1C2(C)C [product Ia] please.
7960

###

- METHOD SUMMARY: in vivo
- Design: species or system female C3H/HeN mice
- MEASUREMENT CONTEXT: mouse, brain, iv, 40 mg/kg, 40 mg.kg^-1 i.v., 2 min after dose, individual animals IV1-IV4, read-out: Brain product Ic concentration
OBSERVABLE: concentration at 2 min (ng/g)
Output spec: scalar in ng/g, unitless text.

Quote concentration at 2 min reported for `CO[C@H]1C(=O)[C@]2(C)[C@@H](OC)C[C@H]3OC[C@@]3(OC(C)=O)[C@H]2[C@H](OC(=O)c2ccccc2)[C@]2(O)C[C@H](OC(=O)[C@H](O)[C@@H](NC(=O)OC(C)(C)C)c3ccccc3)C(C)=C1C2(C)C` please.
6960

The reported numbers originate from patent EP0982027A1.
